These measurements were taken from patent US20260158177A1.

Can you tell me pIC50 for the items I'm about to list?
target: human granzyme B (Homo sapiens)
Sequence (P10144 21-247): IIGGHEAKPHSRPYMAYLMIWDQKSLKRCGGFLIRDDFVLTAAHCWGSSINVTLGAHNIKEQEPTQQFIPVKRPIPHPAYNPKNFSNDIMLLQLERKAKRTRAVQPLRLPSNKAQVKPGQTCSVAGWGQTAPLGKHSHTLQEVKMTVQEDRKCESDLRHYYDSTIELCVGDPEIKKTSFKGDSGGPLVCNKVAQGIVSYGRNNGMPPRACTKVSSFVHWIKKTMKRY
Numbers only, as −log10 of the molar value.

molecule	target	endpoint_label	value_measured
CC[C@H](C)[C@H](NC(=O)CCNC(=O)CCNC(=O)[C@@H](CCC(=O)O)NC(=O)CN1CCC(CN2CCN3CCN(CC2)CC(=O)[O][Al]([F])[O]C(=O)C3)CC1)C(=O)N[C@H]1CCc2cccc3c2N(C1=O)[C@H](C(=O)NC1CC(=O)OC1O)C3 (stereo partly drawn)	human granzyme B (Homo sapiens)	pIC50	8.24
CC[C@H](C)[C@H](NC(=O)CC[C@@H](NC(=O)CN1CCN(C(=O)CN2CCN3CCN(CC2)CC(=O)[O][Al]([F])[O]C(=O)C3)CC1)C(=O)O)C(=O)N[C@H]1CCc2cccc3c2N(C1=O)[C@H](C(=O)NC1CC(=O)OC1O)C3 (stereo partly drawn)	human granzyme B (Homo sapiens)	pIC50	8.57

Now look at this one.
Ask | Note down pIC50 recorded for CC[C@H](C)[C@H](NC(=O)CCNC(=O)CCNC(=O)[C@H](CC(C(=O)O)C(=O)O)NC(=O)CN1CCN(C(=O)CN2CCN3CCN(CC2)CC(=O)[O][Al]([F])[O]C(=O)C3)CC1)C(=O)N[C@H]1CCc2cccc3c2N(C1=O)[C@H](C(=O)NC1CC(=O)OC1O)C3 (stereo partly drawn)
Reply | 8.60
